System: Fibrinogen (Alexa647-labelled)
experiment_summary: fibrinogen binders on compound microarrays, profiling panel, artefact control for SMM control-protein annotation, biochemical, small-molecule microarray, 635/667 nm fluorescence (AID 1131);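 further: z-score merges 667 nm fluorescence with per-spot signal-to-noise over triplicate slides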
stated_conditions: fibrinogen-A647 binding fluorescence, higher = more signal
# composite z-score >= 0.2 gives t, anything below gives f

Here's what some known entries look like.
# compound, class_name
rows = [
    ("CN1CCc2nc(-c3ccccc3)c(-c3ccccc3)cc2C1", "t"),
    ("COC(=O)[C@H](C)NC(=O)CCC1CC(OC(=O)NCCc2ccc(F)cc2)CC2(CCCC(COC(=O)NCCc3ccccc3OC)O2)O1 (some centres not stated)", "t"),
    ("C[C@@H](c1ccccc1)N1C(=O)[C@H]2[C@H]3[C@H](O)[C@H](O)CC(=NNC(=O)OCc4ccccc4)[C@@H]3CC[C@H]2C1=O", "f"),
    ("CCc1cc2c(nc1CC)CCN(CCC(C)=NOCC[C@@H]1C=C[C@H](OC(C)=O)[C@@H](COC(C)=O)O1)C2", "f"),
]

Determine whether measured composite z-score meets or exceeds 0.2 for COC(=O)[C@@H]1CC[C@H](C)[C@@H](c2ccc(C)cc2)N1C(=O)c1ccc(C=NOC[C@@H](O)[C@H]2O[C@@H]3OC(C)(C)O[C@@H]3[C@H]2O)cc1
t

Has CCOC(=O)[C@H](CC(C)C)NC(=O)CCC1CC(OC(=O)NCCc2ccc(F)cc2)CC2(CCCC(COC(=O)NCc3cccc4ccccc34)O2)O1 (some centres not stated) a recorded composite z-score greater than or equal to 0.2?
t

Threshold query (composite z-score >= 0.2) on CC(CCN1CCCc2nc(C)c(C)cc21)=NO[C@H](C)c1cn([C@H](CO)Cc2ccccc2)nn1
f

meta.source: PubChem BioAssay
